# test: Resazurin cell viability assay, non-malignant keratinocytes
# Assay type: cell-based, human
# conditionNotes: human, HaCaT keratinocytes (non-malignant); HaCaT, highest concentrations tested, 72 h (Figure 4); read-out: viability of non-malignant cells
quantityKind: viability at 72 h (%)

1) Nc1ccn([C@@H]2O[C@H](CO)[C@@H](O)C2(F)F)c(=O)n1 | 13

====

# System: T24 (human urinary bladder carcinoma)
# test: Resazurin cell viability assay, bladder cancer
# Assay type: cell-based
# conditionNotes: Homo sapiens; 72 h, resazurin, mean ± SEM
quantityKind: IC50 (nM)

1) Nc1ccn([C@@H]2O[C@H](CO)[C@@H](O)C2(F)F)c(=O)n1 | 2.3

====

# Test system: T24 (human urinary bladder carcinoma)
# test: Resazurin cell viability assay, bladder cancer
# Type: cell-based
# conditionNotes: 72 h, resazurin, mean ± SEM
pIC50: −log10 of the molar value.
quantityKind: pIC50

1) N.N.O=C([O-])C1(C(=O)[O-])CCC1.[Pt+2] | 4.66

====

# Tested on: A549 (human lung adenocarcinoma)
# test: Resazurin cell viability assay, lung adenocarcinoma
# Assay type: cell-based
# conditionNotes: IC50 HaCaT / IC50 A549, 96 h, mean ± SEM (Table S3)
Rule: TRUE for Selectivity Index A549 not less than 0.6, FALSE for anything less.

1. CC(=O)O[C@H]1C(=O)[C@@]2(C)[C@H]([C@H](OC(=O)c3ccccc3)[C@]3(O)C[C@H](OC(=O)[C@H](O)[C@@H](NC(=O)c4ccccc4)c4ccccc4)C(C)=C1C3(C)C)[C@]1(OC(C)=O)CO[C@@H]1C[C@@H]2O | FALSE
2. CCN(CC)CCNC(=O)c1c(C)[nH]c(/C=C2\C(=O)Nc3ccc(F)cc32)c1C | TRUE
3. COc1cccc2c1C(=O)c1c(O)c3c(c(O)c1C2=O)C[C@@](O)(C(=O)CO)C[C@@H]3O[C@H]1C[C@H](N)[C@H](O)[C@H](C)O1 | FALSE
4. O=c1[nH]cc(F)c(=O)[nH]1 | FALSE
5. Nc1ccn([C@@H]2O[C@H](CO)[C@@H](O)C2(F)F)c(=O)n1 | TRUE

====

# Tested on: A549 (human lung adenocarcinoma)
# test: Resazurin cell viability assay, lung adenocarcinoma
# Type: cell-based
# conditionNotes: Homo sapiens, A549; 72 h, resazurin, mean ± SEM
quantityKind: IC50

1. Nc1ccn([C@@H]2O[C@H](CO)[C@@H](O)C2(F)F)c(=O)n1 [Gemcitabine] | 5.6 nM

====

# System: MeWo (human melanoma)
# test: Resazurin cell viability assay, melanoma
# Assay type: cell-based
# conditionNotes: 72 h, resazurin, mean ± SEM
quantityKind: IC50 (µM)

1) N.N.O=C([O-])C1(C(=O)[O-])CCC1.[Pt+2] | 100

====

# System: HaCaT cells (human keratinocytes)
# test: Resazurin cell viability assay, non-malignant keratinocytes
# Type: cell-based
# conditionNotes: 96 h, resazurin, mean ± SEM (Table S3); read-out: IC50 HaCaT (Non-malignant keratinocyte)
Measured IC50 values are reported for all entries that follow.
quantityKind: IC50 (µM)

1) N.N.O=C([O-])C1(C(=O)[O-])CCC1.[Pt+2] | 11.4
2) N.N.[Cl][Pt][Cl] [Cisplatin] | 2.2
